Recorded values, source PubChem BioAssay (NCI).

Please go through the items and note down their TGI.
Test system: SF-295 CNS
Assay: NCI tumour cell line growth inhibition, 48 h

Input `N#CC(C#N)N=Nc1ccc(Br)cc1` . Output TGI: > 100 µM

Input `COc1ccc(Cc2cc3c(cc2OCC(=O)O)OCO3)cc1` . Output TGI: > 100 µM

Input O=C1O[C@H]2[C@H](O)[C@@H](OC(=O)c3cc(O)c(O)c4c3[C@@H]3C1=CC(=O)C(O)(O)C3(O)O4)[C@H](OC(=O)c1cc(O)c(O)c(O)c1)O[C@@H]2CO (stereo partly specified) . Output TGI: > 100 µM

Input `Cc1ccccc1C(=O)Oc1ccc(O)cc1` . Output TGI: > 100 µM

Input `CCn1cc(-c2ccnc3[nH]ccc23)c(-c2cccc(NC(=O)Nc3ccc(OCc4ccccc4)cc3)c2)n1` . Output TGI: > 25 µM

Input Cc1nn(C(=O)c2ccncc2)c2c1C(c1ccccc1)SC(N)=N2 (stereo unspecified) . Output TGI: > 10 µM

Input `CN(C)Cc1cc(C(C)(C)C)ccc1-c1ccc(C(C)(C)C)cc1CN(C)C` . Output TGI: > 100 µM

Input CCN(CC)CCCC(C)Nc1ccnc2ccc3nn(C)nc3c12 (stereo unspecified) . Output TGI: > 100 µM

Input `OC[C@]1(n2nc3ccccc3n2)OC[C@@H]1c1ccccc1` . Output TGI: > 100 µM

Input `COc1ccc2c(c1)/C(=C\c1c(C)nc3sc(C)cn13)C(=O)N2` . Output TGI: > 20.4 µM

Input `O=C(Nc1cc2c(=O)oc3ccccc3c2oc1=O)c1cccnc1` . Output TGI: > 100 µM

====

Test system: RXF 393 renal
Experiment: NCI tumour cell line growth inhibition, 48 h
Measured metric: TGI

Input `COc1cc(O)c2c(c1)C(=O)C=C(Cl)C2=O` . Output TGI: > 100 µM

Input `COc1ccc(Cc2cc3c(cc2OCC(=O)O)OCO3)cc1` . Output TGI: > 100 µM

Input `Cc1ccc(S(=O)(=O)N2C[C@](O)(c3ccccc3)[C@H]2C)cc1` . Output TGI: > 100 µM

Input `Oc1ccccc1C=Nc1ccc(-c2nc3ccccc3[nH]2)cc1` . Output TGI: > 100 µM

Input `Cc1nc(C(N)=S)sc1C(/C=C/c1ccc(Cl)c(Cl)c1)=N/NC(C)(C)C` . Output TGI: > 100 µM

====

System: MALME-3M melanoma
Experiment: NCI tumour cell line growth inhibition, 48 h
Measured metric: TGI

Input `O=C(Nc1nn(C(=O)c2ccc(Cl)cc2)c(=O)s1)c1ccc(Cl)cc1` . Output TGI: > 100 µM

Input `CC(=O)NNc1nc(C)c(C(/C=C/c2ccc([N+](=O)[O-])cc2)=N/NC(N)=S)s1` . Output TGI: > 100 µM

Input `Cc1oc(N)c(S(=O)(=O)c2ccc(Cl)cc2)c1C` . Output TGI: > 100 µM

Input OC(COc1ccc(F)cc1)Cn1cnc2c(Cl)ncnc21 (stereo not drawn) . Output TGI: > 100 µM

Input `S=P1(N2CCCCC2)Oc2ccc3ccccc3c2-c2c(ccc3ccccc23)O1` . Output TGI: > 59.6 µM

Input `CCCCSC1=N/C(=C\c2ccc(N(C)C)cc2)C(NN)=N1` . Output TGI: > 100 µM

Input `Cc1ccccc1C(=O)Oc1ccc(O)cc1` . Output TGI: > 100 µM

Input COc1cc(NC(C)=O)ccc1C(=O)NN1C(=O)C(Cl)C1c1ccco1 (stereo not drawn) . Output TGI: > 100 µM

Input `O=C(Cc1nc2ccccc2s1)C(=O)Nc1cccc(Cl)c1` . Output TGI: > 100 µM

Input Cc1nn(C(=O)c2ccncc2)c2c1C(c1ccccc1)SC(N)=N2 (stereo not drawn) . Output TGI: > 10 µM

Input `CCOC(=O)C(=O)Nc1ccc(Cl)cc1C` . Output TGI: > 100 µM

Input `O=C(CCCNc1nc(-c2ccccc2)cs1)c1cccs1` . Output TGI: > 100 µM

Input `COc1cc(Nc2ncc(F)c(Nc3ccc4c(n3)NC(=O)C(C)(C)O4)n2)cc(OC)c1OC` . Output TGI: > 100 µM

====

System: HCT-116 colon
Test: NCI tumour cell line growth inhibition, 48 h
Measured metric: TGI

Input COc1cc(C2SC(N)=Nc3c2c(C)nn3C(=O)c2ccccc2O)ccc1O (stereo not drawn) . Output TGI: > 10 µM

Input `CCCC(=O)O[C@H]1C=C2C[C@@]34SS[C@]5(CC6=C[C@H](OC(C)=O)[C@@H]7O[C@@H]7[C@H]6N5C3=O)C(=O)N4[C@@H]2[C@H]2O[C@H]21` . Output TGI: 0.0285 µM

Input `O=C(/C=C1\C[C@H]2C=Nc3ccccc3C(=O)N2C1)NCCCCNC(=O)/C=C1\C[C@H]2C=Nc3ccccc3C(=O)N2C1` . Output TGI: 25.9 µM

Input `CC(C)(C)c1cc2c(O)c(c1)Cc1cc(C(C#N)(Cc3ccc4ccccc4c3)Cc3ccc4ccccc4c3)cc(c1O)Cc1cc(C(C)(C)C)cc(c1O)Cc1cc(C(C#N)(Cc3ccc4ccccc4c3)Cc3ccc4ccccc4c3)cc(c1O)C2` . Output TGI: > 100 µM

Input `Brc1c(C#CCC(c2ccccc2)(c2ccccc2)c2ccccc2)ccc(C#CCC(c2ccccc2)(c2ccccc2)c2ccccc2)c1Br` . Output TGI: > 100 µM

Input CCN(CC)c1ccc2c(c1)Oc1nc(N)c(C#N)c(N)c1C2Sc1ccc(OC)cc1 (stereo not drawn) . Output TGI: 3.12 µM

Input `CCCCc1ccc(Nc2nc(=S)c3[nH]cnc3[nH]2)cc1` . Output TGI: > 100 µM

Input `Cc1nc(CN2CCCCC2)c(O)c(=O)[nH]1` . Output TGI: > 100 µM

====

Test system: HOP-62 NSCLC
Experiment: NCI tumour cell line growth inhibition, 48 h
Measured metric: TGI

Input `CCN(CC)CCCn1c(=O)c2ccccc2n2c3c(=O)n(C)c(=O)n(C)c3nc12` . Output TGI: 15.1 µM

Input Cc1nn(C(=O)c2ccncc2)c2c1C(c1ccccc1)SC(N)=N2 (configuration not stated) . Output TGI: > 10 µM

Input `O=C1C=CC2=[N+]([O-])C(c3ccccc3)(c3ccccc3)C(=Nc3ccccc3)C2=C1` . Output TGI: 29.3 µM

Input `O=C(N/N=C/c1ccc([N+](=O)[O-])o1)c1ccc(C(=O)N/N=C/c2ccc([N+](=O)[O-])o2)cc1` . Output TGI: > 100 µM

Input `O=C(Cc1csc(N=Nc2c(O)[nH]c3ccccc23)n1)Nc1ccccc1` . Output TGI: 52.2 µM

Input `O=S(=O)(N/N=C/c1cccc(Cl)c1Cl)c1ccccc1` . Output TGI: > 100 µM

Input `Fc1ccc(-c2ncn(C3CCNCC3)c2-c2ccnc(Oc3ccc(F)c(F)c3)n2)cc1` . Output TGI: 9.56 µM

Input O/N=C1/C(=C/c2ccc(Oc3ccccc3)cc2)CCCC1C(NO)c1ccc(Oc2ccccc2)cc1 (configuration not stated) . Output TGI: > 100 µM

Input `COc1ccc(C(=O)/C=C/c2cc3c(c(OC)c2)OCC(=O)N3)cc1` . Output TGI: > 100 µM

Input `CCN1C2=NCCN2S(=O)(=O)c2ccccc21` . Output TGI: > 100 µM

Input `CC1(C)CC23CC(C)(C)c4cccc(c42)OCc2ccc4ccc5ccc(nc5c4n2)COc2cccc1c23` . Output TGI: > 50 µM

Input `O=C(/C=N/O)Nc1cc(Cl)c(Cl)cc1Cl` . Output TGI: > 100 µM

====

Please go through the items and note down their GI50.
Tested on: LOX IMVI melanoma
Assay: NCI tumour cell line growth inhibition, 48 h

Input `O=C(O)CCC/C=C\C[C@H]1C=CC(=O)/C1=C/C[C@@H](O)CCc1cccc(C(F)(F)F)c1` . Output GI50: 1.29 µM

Input `CN1CCN(c2ccc(Nc3nc(N)c(C(=O)c4ccc5c(c4)OCCO5)s3)cc2)CC1` . Output GI50: 3.2 µM

Input `COc1cc(Nc2ncc(F)c(Nc3ccc4c(n3)NC(=O)C(C)(C)O4)n2)cc(OC)c1OC` . Output GI50: 1.57 µM

Input `CCn1cc(-c2ccnc3[nH]ccc23)c(-c2cccc(NC(=O)Nc3ccc(OCc4ccccc4)cc3)c2)n1` . Output GI50: 6.01 µM

Input CCN(CC)CCCC(C)Nc1nc(C)cc(Nc2ccc3nc(C)cc(N)c3c2)n1 (stereo unspecified) . Output GI50: 18.4 µM

Input `Clc1ccc(C2=Nn3c(nnc3-c3cc(Cl)cc(Cl)c3Cl)SC2)cc1` . Output GI50: 27.1 µM

====

System: M14 melanoma
Assay: NCI tumour cell line growth inhibition, 48 h
Please go through the items and note down their GI50.

Input `N=C(N)c1ccc(-c2ccc(-c3ccccc3)s2)cc1` . Output GI50: 1680 nM

Input `CC(=O)[O-].[Mn+3].[O-]c1ccccc1C=NCCN=Cc1ccccc1[O-]` . Output GI50: > 100000 nM

Input `CC(C)CC(=O)Nc1n[nH]c2c1CN(C(=O)C1CCN(C)CC1)C2(C)C` . Output GI50: 2240 nM

Input `Cc1nccc2c3ccc(OCc4cn(-c5ccc(Cl)cc5)nn4)cc3n(CCCc3ccccc3)c12` . Output GI50: 616 nM

Input `Clc1ccc(C2=Nn3c(nnc3-c3cc(Cl)cc(Cl)c3Cl)SC2)cc1` . Output GI50: 29000 nM

Input `CN(C)C/C=C/C(=O)Nc1cc2c(Nc3ccc(F)c(Cl)c3F)ncnc2cc1OCCOC(F)F` . Output GI50: 1870 nM

Input `COC1=CC(=O)C(OC)=C(OC)C1=O` . Output GI50: 15600 nM
